Readings of GI50 for the listed compounds
Tested on: MDA-MB-231 breast
ASSAY_PROCEDURE: NCI tumour cell line growth inhibition, 48 h

Consider the worked cases shown below.
1. COc1cc(C=C2c3ccccc3C(=O)c3ccccc32)ccc1OCCCCOc1cc2c(cc1OC)C(=O)N1CCCC1C=N2 (stereo unspecified) : 0.603 µM
2. CN(c1ccc(C(=O)O)cc1)c1cc(O/N=[N+](\[O-])N(C)C)c([N+](=O)[O-])cc1[N+](=O)[O-] : 3.71 µM
3. C=C(C)[C@@H]1/C=C(/C(C)C)CC[C@@]2(C)OC2CC[C@H](C)CC1=O (stereo partly specified) : 19.3 µM

QUERY: Please report the measured GI50 for "COc1cc(C(=O)/C=C/c2c(-c3cccs3)nc3sccn23)cc(OC)c1OC" tested on MDA-MB-231 breast.
RESULT: 1.55 µM

QUERY: Please report the measured GI50 for "O=C(/C=C/c1c(-c2ccccc2)[nH]c2ccccc12)S(=O)(=O)c1ccccc1" tested on MDA-MB-231 breast.
RESULT: 16.6 µM

QUERY: Please report the measured GI50 for "COC1=C(C)C(=O)N2[C@@H]1[C@H](c1ccccc1)OC21C=CC(=O)C=C1" tested on MDA-MB-231 breast.
RESULT: 2.77 µM

###

Readings of GI50 for the listed compounds
System: OVCAR-4 ovarian
ASSAY_PROCEDURE: NCI tumour cell line growth inhibition, 48 h

QUERY: Using the record for "O=C(/C=C/c1c(-c2ccccc2)[nH]c2ccccc12)S(=O)(=O)c1ccccc1" , state its measured GI50.
RESULT: 4.48 µM

QUERY: Using the record for "Cn1cc(-c2csc(-c3c[nH]c4ccc(F)cc34)n2)c2cccnc21" , state its measured GI50.
RESULT: 12.3 µM

QUERY: Using the record for "O=C(c1ccc(Oc2ccccc2)cc1Cl)c1c[nH]c2ncnc(N[C@@H]3CC[C@@H](CO)OC3)c12" , state its measured GI50.
RESULT: 5.02 µM

QUERY: Using the record for "Cn1c([N+](=O)[O-])cnc1/C=C1\Oc2ccc(Br)cc2C1=O" , state its measured GI50.
RESULT: 1.58 µM

QUERY: Using the record for COc1cc(C=C2c3ccccc3C(=O)c3ccccc32)ccc1OCCCCOc1cc2c(cc1OC)C(=O)N1CCCC1C=N2 (stereo not given) , state its measured GI50.
RESULT: 0.456 µM

###

System: NCI-H460 lung
ASSAY_PROCEDURE: NCI tumour cell line growth inhibition, 48 h; in the data active = GI50 below about 0.43 µM; inactive = the rest
Please reply with one of these outcomes: True (active), False (inactive)

Solved cases (4 shown):
1) C1C[OH+]CCNCC[OH+]CC[OH+]CCN1.O.[Cl-].[Pt+4] : False
2) CCOC(=O)c1cc(C(=O)c2cc(OC)cc(OC)c2)n2nc(C)ccc12 : True
3) COc1cc2c(Oc3ccc4[nH]c(C)cc4c3F)ncnc2cc1OCCCN1CCCC1 : False
4) COc1cc(C(=O)/C=C/c2c(-c3cccs3)nc3sccn23)cc(OC)c1OC : False

Now look at this one.
QUERY: What was the test verdict on "COc1cc(/C=C/c2cc(/C=C/c3ccc(O)c(OC)c3)n(C(N)=O)n2)ccc1O" ?
RESULT: True

###

Test system: MDA-N
ASSAY_PROCEDURE: NCI tumour cell line growth inhibition, 48 h
TEST_READOUT: TGI

Consider the worked cases shown below.
1) Cc1cc(=O)[nH]c(-n2[nH]c3c(c2=O)CCCC3)n1 : > 100 µM
2) COc1cccc(-c2nc(-c3cnccn3)n(C3OC(CO)C(O)C3O)n2)c1 (stereo not given) : > 100 µM
3) Cc1ccc(S(=O)(=O)N/N=C2/C3CCC(C3)C2c2ccccc2)cc1 (stereo not given) : > 100 µM
4) CN1C(=O)C(/C=N/NC(=O)c2cccnc2)C(N)N(C)C1=O (stereo not given) : > 100 µM
5) CC(C)(C)[Si](C)(C)OC1(CCc2ccccc2OS(=O)(=O)C(F)(F)F)CCCC=C1COCc1ccccc1 (stereo not given) : > 100 µM

QUERY: Please report the measured TGI for "Nc1cnc(Nc2cccc3ccccc23)o1" tested on MDA-N.
RESULT: > 10 µM

QUERY: Please report the measured TGI for CN1N(c2ccccc2)C(=O)C2=NC=C(C(=O)c3ccccc3)C(=N)C21C (stereo not given) tested on MDA-N.
RESULT: > 100 µM

QUERY: Please report the measured TGI for "O=C1c2ccc3c4ccc5c6c(ccc(c7ccc(c2c37)C(=O)N1CCN1CCCCC1)c64)C(=O)N(CCN1CCCCC1)C5=O" tested on MDA-N.
RESULT: > 100 µM

QUERY: Please report the measured TGI for O=C1C(Cl)=C(Cl)C(Cl)(Cl)C(Cl)C1(Cl)Cl (stereo not given) tested on MDA-N.
RESULT: 66.2 µM

QUERY: Please report the measured TGI for CC(C#N)NCc1ccc(C(C)NC(C)C#N)cc1 (stereo not given) tested on MDA-N.
RESULT: > 100 µM

###

Readings of TGI for the listed compounds
Test system: RPMI-8226 leukemia
ASSAY_PROCEDURE: NCI tumour cell line growth inhibition, 48 h
Express the result in µM but write the number alone.

Consider the worked cases shown below.
1. COC(=O)N/N=C(/CC1(O)C(=O)Nc2ccc([N+](=O)[O-])cc21)c1ccccc1 (centres undefined) : 97.2
2. CN(C)CCNc1c2c(c(NCCN(C)C)c3c(CN(C)C)c[nH]c13)C(=O)c1ccccc1C2=O : 2.26
3. O=C1C(Cl)=C(Cl)C(Cl)(Cl)C(Cl)C1(Cl)Cl (centres undefined) : 70.4
4. COc1cc(/C=C/c2cc(/C=C/c3ccc(O)c(OC)c3)n(C(=O)Cc3ccccc3)n2)ccc1O : 2.24

Let's switch to this compound now.
QUERY: Please report the measured TGI for "COc1cc(C(=O)/C=C/c2c(-c3cccs3)nc3sccn23)cc(OC)c1OC" tested on RPMI-8226 leukemia.
RESULT: 3.68

###

System: SK-OV-3 ovarian
ASSAY_PROCEDURE: NCI tumour cell line growth inhibition, 48 h
TEST_READOUT: GI50

Consider the worked cases shown below.
1) O=c1[nH]cnc2c1ncn2C1CCC(CO)O1 (configuration not stated) : > 1000 µM
2) CN(C)CCNc1c2c(c(NCCN(C)C)c3c(CN(C)C)c[nH]c13)C(=O)c1ccccc1C2=O : 17.4 µM
3) COc1cc(Nc2cc(O)c3c(=O)cc(-c4ccccc4)oc3c2)cc(OC)c1 : 0.548 µM
4) N#Cc1cc(-c2ccnc(Nc3ccc(NC(=O)CCl)cc3)n2)ccc1N1CCCC1 : 2.9 µM

QUERY: Using the record for "Cc1ccc(N(CC(=O)Nc2ccc(S(=O)(=O)NC3CCN(C)CC3)cc2)S(=O)(=O)c2ccc(Cl)cc2)cc1" , state its measured GI50.
RESULT: 5.45 µM

QUERY: Using the record for "CCOC(=O)c1cc(C(=O)c2cc(OC)cc(OC)c2)n2nc(C)ccc12" , state its measured GI50.
RESULT: 0.878 µM

QUERY: Using the record for "Nc1nc(SCc2ccccc2)nc2[nH]ncc12" , state its measured GI50.
RESULT: 20 µM

QUERY: Using the record for "CCCCc1ccc(NS(=O)(=O)c2cc3c4c(c2)CCN4C(=O)CC3)cc1" , state its measured GI50.
RESULT: 34.9 µM

QUERY: Using the record for "O=C(/C=C/c1c(-c2ccccc2)[nH]c2ccccc12)S(=O)(=O)c1ccccc1" , state its measured GI50.
RESULT: 23.5 µM

QUERY: Using the record for "O=C1C(=O)/C(=C/c2ccccc2)CCCCCC/C1=C/c1ccccc1" , state its measured GI50.
RESULT: 8.9 µM

QUERY: Using the record for "Cn1cc(-c2csc(-c3c[nH]c4ccc(F)cc34)n2)c2cccnc21" , state its measured GI50.
RESULT: 10.5 µM

QUERY: Using the record for COc1cc(C=C2c3ccccc3C(=O)c3ccccc32)ccc1OCCCCOc1cc2c(cc1OC)C(=O)N1CCCC1C=N2 (configuration not stated) , state its measured GI50.
RESULT: 1.41 µM

###

Readings of log10(TGI) for the listed molecules
Tested on: XF 498 CNS
ASSAY_PROCEDURE: NCI tumour cell line growth inhibition, 48 h
Plainly stated, the numbers are log10 of TGI given in µM.

Consider the worked cases shown below.
1) CC(=O)Nc1cccc2[nH]c3ccccc3c(=O)c12 : 1.70
2) O=S1(=O)OCCOS(=O)(=O)C1(I)I : 1.57
3) CC[C@H]1CC(=O)c2c(cc3c(c2O)C(=O)c2ccccc2C3=O)[C@@]1(C#N)C(=O)OC(C)(C)C : 0.88
4) O=C1c2cccc3cc4ccccc4c(c23)C(=O)N1CCNCCN1C(=O)c2cccc3cc4ccccc4c(c23)C1=O : -0.09
5) CCCCCCCCNC(=O)SCCCC : 1.57

Let's switch to this molecule now.
QUERY: Using the record for COc1cccc2c1C(=O)c1c(O)c3c(c(O)c1C2=O)C[C@@](O)(C(=O)CO)C[C@@H]3OC1CC(N(C)C)C(O)C(C)O1 (some centres not stated) , state its measured log10(TGI).
RESULT: -1.26

Every entry's value here was drawn from PubChem BioAssay (NCI).
